Below is a list of entries, each paired with its recorded ΔFold over Free (3x3v1) value.
System: KASUMI-1 cells
Test: MTT cell killing assay
Format: cell-based, Human
Conditions: IC50 on 3x3v1 net versus free aptamer
endpoint: ΔFold over Free (3x3v1) (x)

[[record]]
molecule = "ABWT050902: CD117-binding aptamer, SEQ ID NO: 1; FAM-labeled or daunorubicin-loaded in tests (nucleic acid, FAM label or daunorubicin loading in tests, chemistry not fully specified) ATCCAGAGTGACGCAGCACCGCCCATGTCGAATAGGTGCCACGTAGGGACTTGGACACGGTGGCTTAGT"
unitlabel = "x"
valuereported = 2.4

[[record]]
molecule = "CY30: CD123-binding aptamer, SEQ ID NO: 5 (nucleic acid, listed as DNA, chemistry not fully specified) TGCGTGTGTACTGTGTCTGGTCCCGTAGCTACTAGCGAACTCCCTGCCTCTTAGGGATTTGGGCGG"
unitlabel = "x"
valuereported = 5.5

[[record]]
molecule = "ABWT050904: CD117-binding aptamer, SEQ ID NO: 2 (nucleic acid, listed as DNA, chemistry not fully specified) ATCCAGAGTGACGCAGCACGAGCCTTGTGTCGTTCGGAGTGCTGGTCCACGACTACTATTGGACACGGTGGCTTAGT"
unitlabel = "x"
valuereported = 4.2

[[record]]
molecule = "#1: CD117-binding aptamer, SEQ ID NO: 3 (nucleic acid, listed as DNA, chemistry not fully specified) GAGGCATACCAGCTTATTCAAGGGGCCGGGGCAAGGGGGGGGTACCGTGGTAGGACATAGTAAGTGCAATCTGCGAA"
unitlabel = "x"
valuereported = 3.6

[[record]]
molecule = "ZW25: CD123-binding aptamer, SEQ ID NO: 4 (nucleic acid, listed as DNA, chemistry not fully specified) TGCGTGTGTAGTGTGTCTGGGCTACATCGATGAGCTGCCTAGGGTCCCTCTTAGGGATTTGGGCGGG"
unitlabel = "x"
valuereported = 8.0


The reported numbers originate from patent US20250388907A1.
